FYI, the data here is from patent US11746354B2.

For each record, write down the corresponding Hypoxia Avg. (HDR).
- Tested on: maize (Zea mays) r1-colored1 gene
- test.method.notes: HDR editing of an endogenous gene in maize protoplasts (RNP + dsDNA donor template, MiSeq sequencing)
- Format: cell-based
- Parameters: unit not given here
- test.parameters: hypoxic conditions; 5 μM compound, 0.1% DMSO; B104 maize protoplasts; 48 hours at 26 degrees Celsius in the dark; average of triplicate samples
One number for each entry.

Completed entries (count: 3):
IN: For Nc1nc(Cl)nc2c1ncn2[C@@H]1O[C@H](CO)[C@@H](O)[C@H]1O , what is its reported Hypoxia Avg. (HDR)?
OUT: 5.00

IN: And for CN(CCOc1ccc(CC2SC(=O)NC2=O)cc1)c1ccccn1 (stereo not drawn) ?
OUT: 4.97

IN: And for Cc1oc(-c2ccccc2)nc1CCOc1ccc(CC2SC(=O)NC2=O)c2sccc12 (stereo not drawn) ?
OUT: 6.28

Hi, could you look up Hypoxia Avg. (HDR) for each item in my list?
1. CN(C)NC(=O)CCC(=O)O [Daminozide]
2. CC(=O)[C@H]1CC[C@H]2[C@@H]3CC[C@@H]4C[C@H](O)CC[C@]4(C)[C@H]3CC[C@]12C
3. c1ccc(-c2ccc(CNc3nc(-c4ccccn4)nnc3-c3ccccc3)cc2)cc1
4. CC(=O)NCCNc1cc(Cl)nn2c(-c3cccc(S(=O)(=O)N(C)C)c3)c(C)nc12
5. Cc1ccc(C(=O)N(CCCN)[C@@H](c2[nH]c3cc(Cl)ccc3c(=O)[n+]2Cc2ccccc2)C(C)C)cc1
6. CSc1nc(-c2ccc(F)cc2)c(-c2ccnc(NC(C)c3ccccc3)c2)[nH]1 (stereo not drawn)

OUT:
[0.48, 2.52, 4.49, 7.75, 4.04, 4.36]
